Listed here: items and their measured pKi.
target: D(4) dopamine receptor (Homo sapiens)
Sequence (P21917 whole entry): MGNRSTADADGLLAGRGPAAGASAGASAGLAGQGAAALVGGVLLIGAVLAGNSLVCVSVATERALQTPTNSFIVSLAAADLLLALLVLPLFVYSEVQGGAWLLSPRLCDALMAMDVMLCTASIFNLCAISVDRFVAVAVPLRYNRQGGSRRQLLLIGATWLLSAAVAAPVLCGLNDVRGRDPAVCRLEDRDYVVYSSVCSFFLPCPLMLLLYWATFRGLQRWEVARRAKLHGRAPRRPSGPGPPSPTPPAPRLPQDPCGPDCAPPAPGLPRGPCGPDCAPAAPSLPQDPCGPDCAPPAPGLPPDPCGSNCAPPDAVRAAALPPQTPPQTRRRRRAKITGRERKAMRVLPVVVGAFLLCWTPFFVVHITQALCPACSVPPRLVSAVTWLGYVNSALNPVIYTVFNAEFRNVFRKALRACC
Hey, just a heads up that pKi is the negative log base 10 of the concentration in molar.

| Compound | Tested Target | Value Type | Value Observed |
| --- | --- | --- | --- |
| CC1(C(=O)/C=C(\O)c2ccc(Cl)cc2)CCN(Cc2ccccc2)CC1 | D(4) dopamine receptor (Homo sapiens) | pKi | 6.46 |
| c1ccc(CCN2CCC3(CCc4c(-c5ccccc5)n[nH]c43)CC2)cc1 | D(4) dopamine receptor (Homo sapiens) | pKi | 6.03 |
| Clc1ccc(-c2cc(C3CCN(CC4CCCCC4)CC3)[nH]n2)cc1 | D(4) dopamine receptor (Homo sapiens) | pKi | 7.89 |
| CC1(c2cc(-c3ccc(Cl)cc3)[nH]n2)CCN(Cc2ccccc2)CC1 | D(4) dopamine receptor (Homo sapiens) | pKi | 7.33 |

Could you tell me which pKi is on file for Clc1ccc(-c2cc(C3CCCCN3Cc3ccccc3)[nH]n2)cc1 (stereo unspecified) ? 5.32

---

The following compounds each carry a recorded Ki for UniProt P35462.
Sequence (P35462 whole entry): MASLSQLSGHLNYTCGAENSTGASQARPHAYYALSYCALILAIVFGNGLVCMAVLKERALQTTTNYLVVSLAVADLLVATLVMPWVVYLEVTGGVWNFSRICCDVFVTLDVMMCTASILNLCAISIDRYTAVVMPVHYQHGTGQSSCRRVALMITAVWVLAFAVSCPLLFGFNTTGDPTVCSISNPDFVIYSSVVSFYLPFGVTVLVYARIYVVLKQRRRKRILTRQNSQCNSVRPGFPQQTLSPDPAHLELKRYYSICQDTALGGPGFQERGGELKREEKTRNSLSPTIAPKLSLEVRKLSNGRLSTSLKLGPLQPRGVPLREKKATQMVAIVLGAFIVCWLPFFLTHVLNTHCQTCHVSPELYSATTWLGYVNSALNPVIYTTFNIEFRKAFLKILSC
API: value field is a number in µM; no unit string.

Answered examples (8):
| Sample Smiles | Unit Text | Value Observed |
| --- | --- | --- |
| c1ccc(Cc2cc(C3CCN(Cc4ccccc4)CC3)[nH]n2)cc1 | µM | 2.1 |
| Clc1ccc(-c2cc(C3CCN(Cc4ccccc4)CC3)[nH]n2)cc1 | µM | 0.16 |
| CC1(c2cc(-c3ccc(Cl)cc3)[nH]n2)CCN(Cc2ccccc2)CC1 | µM | 1.3 |
| Cc1c(-c2ccccc2)n[nH]c1C1=CCN(CCc2ccccc2)CC1 | µM | 0.83 |
| c1ccc(CCN2CCC(c3cc(-c4cccs4)[nH]n3)CC2)cc1 | µM | 1.1 |
| O=C(/C=C(\O)c1ccc(Cl)cc1)C1CCN(Cc2ccccc2)CC1 | µM | 0.51 |
| Cc1c(-c2ccc(Cl)cc2)nc(N)nc1C1CCN(CCc2ccccc2)CC1 | µM | 1.1 |
| Clc1ccc(-c2cc(C3CCN(Cc4cccc(Cl)c4)CC3)[nH]n2)cc1 | µM | 4.3 |

Could you tell me which Ki is on file for c1ccc(CCN2CCN(c3cc(-c4ccccc4)[nH]n3)CC2)cc1 ? 1.2

// next record Nc1nc(-c2ccc(Cl)cc2)cc(C2CCN(Cc3ccccc3)CC2)n1 0.14

// next record CC1(C(=O)/C=C(\O)c2ccc(Cl)cc2)CCN(Cc2ccccc2)CC1 0.51

---

The following compounds each carry a recorded pKi for D(4) dopamine receptor (Homo sapiens).
Hey, just a heads up that pKi is the negative log base 10 of the concentration in molar.

Answered examples (3):
| Compound | pKi |
| --- | --- |
| Clc1ccc(-c2cc(C3CCN(Cc4ccccc4)C3)[nH]n2)cc1 (centres undefined) | 6.96 |
| Clc1ccc(-c2cc(C3CCN(Cc4ccccc4)CC3)[nH]n2)cc1 | 8.04 |
| Cc1c(-c2ccccc2)n[nH]c1C1=CCN(CCc2ccccc2)CC1 | 8.51 |

Could you tell me which pKi is on file for c1ccc(Cc2cc(C3CCN(Cc4ccccc4)CC3)[nH]n2)cc1 ? 6.80
